testSystem: UniProt:Q13547
Sequence (Q13547 whole entry): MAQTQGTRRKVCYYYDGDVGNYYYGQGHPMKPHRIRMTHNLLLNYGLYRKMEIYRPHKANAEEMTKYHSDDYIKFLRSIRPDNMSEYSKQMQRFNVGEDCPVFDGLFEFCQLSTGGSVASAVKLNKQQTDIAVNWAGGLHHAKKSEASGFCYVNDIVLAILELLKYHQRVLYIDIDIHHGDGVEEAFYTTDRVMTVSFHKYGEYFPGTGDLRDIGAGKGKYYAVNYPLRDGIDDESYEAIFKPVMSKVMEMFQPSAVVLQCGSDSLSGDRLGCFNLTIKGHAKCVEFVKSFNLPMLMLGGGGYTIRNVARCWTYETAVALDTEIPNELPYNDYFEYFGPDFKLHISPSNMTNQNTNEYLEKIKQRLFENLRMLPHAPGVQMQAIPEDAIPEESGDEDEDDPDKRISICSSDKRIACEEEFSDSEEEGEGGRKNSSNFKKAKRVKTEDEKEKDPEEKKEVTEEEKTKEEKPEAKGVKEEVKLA
recordedMetric: IC50 (nM)
State just the number; it will be interpreted in nM.

For reference, reported IC50 for "CN1c2ccccc2C(=O)N2[C@H](C(=O)Nc3ccc(C(=O)Nc4ccccc4N)cc3)Cc3c([nH]c4ccccc34)[C@@H]12" stands at 160
